Molecular target: 5-hydroxytryptamine receptor 1A (Rattus norvegicus)
Sequence (P19327 whole entry): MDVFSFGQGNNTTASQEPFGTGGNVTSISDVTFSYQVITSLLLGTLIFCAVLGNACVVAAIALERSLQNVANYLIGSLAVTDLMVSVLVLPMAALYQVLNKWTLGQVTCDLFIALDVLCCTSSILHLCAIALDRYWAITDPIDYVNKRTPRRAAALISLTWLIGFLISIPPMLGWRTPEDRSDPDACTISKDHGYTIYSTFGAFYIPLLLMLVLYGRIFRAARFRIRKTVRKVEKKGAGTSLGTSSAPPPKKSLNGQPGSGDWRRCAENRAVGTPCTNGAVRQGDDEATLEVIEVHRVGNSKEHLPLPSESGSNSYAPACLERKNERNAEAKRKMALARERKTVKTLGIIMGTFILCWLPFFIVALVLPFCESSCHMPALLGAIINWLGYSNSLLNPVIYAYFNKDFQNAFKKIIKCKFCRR
Metric: pKi
Just so you know, pKi here is -log10 of the concentration in molar units; reply with that number alone.

Illustrative cases are given below, each with its answer.
Write down pKi measured for item CC1CC(=O)N(CCN2CCN(c3cccc4c3OCCO4)CC2)C1=O (stereo unspecified)
6.82

Write down pKi measured for item CC1=CC(=O)N(CCN2CCN(c3cccc4c3OCCO4)CC2)C1=O
7.20

Write down pKi measured for item O=C1C2=C(CCCC2)C(=O)N1CCN1CCN(c2cccc3c2OCCO3)CC1
8.19

Write down pKi measured for item O=C1c2ccccc2C(=O)N1CCN1CCN(c2cccc3c2OCCO3)CC1
7.49

Write down pKi measured for item O=C1C2CC=CCC2C(=O)N1CCN1CCN(c2cccc3c2OCCO3)CC1 (stereo unspecified)
8.00

***
Write down pKi measured for item O=C1CCC(=O)N1CCN1CCN(c2cccc3c2OCCO3)CC1
6.96
